Biological target: Kappa-type opioid receptor (Homo sapiens, UniProt P41145)
Sequence (P41145 whole entry): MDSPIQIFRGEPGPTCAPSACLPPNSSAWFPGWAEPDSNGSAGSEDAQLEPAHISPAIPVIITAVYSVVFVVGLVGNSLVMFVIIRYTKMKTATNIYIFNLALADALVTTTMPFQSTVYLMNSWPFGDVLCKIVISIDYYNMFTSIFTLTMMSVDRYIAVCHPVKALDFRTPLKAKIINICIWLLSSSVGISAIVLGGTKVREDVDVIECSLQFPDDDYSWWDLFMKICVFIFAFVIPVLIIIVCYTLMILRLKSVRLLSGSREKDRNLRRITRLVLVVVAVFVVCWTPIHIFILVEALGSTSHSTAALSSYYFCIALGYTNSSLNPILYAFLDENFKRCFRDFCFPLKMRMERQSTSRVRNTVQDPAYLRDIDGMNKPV
Format: functional
attributeMeasured: EC50 (µM)

INSERT INTO measurements (molecule, attributemeasured, measurednumber) VALUES
  ('CCC(C)(C(=O)NC1CCCC1)N(Cc1ccco1)C(=O)c1ccccn1 (stereo unspecified)', 'EC50', 11.4);

* * *

Recorded EC50 values for a group of molecules are listed next.
Test system: Streptococcus
Assay: Group A Streptococcus viability loss, dose response, counter-screen for streptokinase expression inhibitor project, luminescence, BacTiterGlo (AID 1915);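 also: potency for reduction of bacterial viability or growth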
Format: functional, organism-based
Calls of active or inactive are those of the source. Cut-off read from the data, not from the text of the source: actives have a measured EC50 and inactives only a lower limit.
attributeMeasured: EC50

INSERT INTO results (molecule, result) VALUES
  ('COc1cccc(C(=O)N/N=C(/c2ccccc2)c2ccccn2)c1', '18 µM (active)'),
  ('Cc1ccc(C(=O)CC(=O)c2ccccc2C)c(O)c1', '9.83 µM (active)'),
  ('Clc1ccc2nc(-c3ccccn3)c(Nc3ccc4c(c3)OCO4)n2c1', '12.7 µM (active)'),
  ('COc1cc(/C=C/C(=O)c2ccc([N+](=O)[O-])o2)ccc1O', '11.8 µM (active)'),
  ('CC(OC(=O)c1ccc(NC(=O)CC#N)cc1)C(=O)NC(=O)NC1CCCCC1 (stereo not given)', '> 150 µM (not active)');
